- Read-out: Interferon-gamma inducible Protein 10 (IP10), CXCL10 (gene 3627)
- TEST DESCRIPTION: BSK_hDFCGF_IP10: BioMAP Diversity Plus: hDFCGF Assay for Interferon-gamma inducible Protein 10 (IP10) Biomarker Activity (AID 2283053)
- PROTOCOL CONDITIONS: primary human foreskin fibroblasts; actives raise or lower the signal
Calls of active or inactive are those of the source. Rule for the calls: active = hit-call score of the fitted dose curve at least 0.9, where 1 is the maximum; inactive = score below 0.9.
Outcomes: active, inactive

1. O=C=NCc1cccc(CN=C=O)c1 inactive
2. O=C(Cl)C(F)(F)C(F)(F)C(F)(F)C(F)(F)C(F)(F)C(F)(F)F inactive
3. O=C1c2c(O)ccc(Nc3ccc(CCO)cc3)c2C(=O)c2c([N+](=O)[O-])ccc(O)c21 active

* * *

- TEST DESCRIPTION: CCTE_Shafer_MEA_dev_spike_duration_mean: CCTE's Neural Network Formation Assay for Mean Spike Duration, Shafer Lab (AID 2284051);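 note: mean network spike duration pooled as area under curve over DIV 5 to 12 recordings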;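 for AC50: potency for a decrease in mean network spike duration versus DMSO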
Calls of active or inactive are those of the source. Rule for the calls: active = hit-call score of the fitted dose curve at least 0.9, where 1 is the maximum; inactive = score below 0.9.
OBSERVED PROPERTY: AC50

1) C=CC(=O)OCC(F)(F)C(F)(F)C(F)(F)COC(=O)C=C 5.18 µM (active)
2) C=CC(=O)OCCC(F)(F)C(F)(F)C(F)(F)C(F)(F)F 22.7 µM (active)
3) O=S(=O)(O)CCC(F)(F)C(F)(F)C(F)(F)C(F)(F)C(F)(F)C(F)(F)C(F)(F)C(F)(F)F inactive
4) CO[Si](C)(CCC(F)(F)C(F)(F)C(F)(F)C(F)(F)C(F)(F)C(F)(F)F)OC inactive
5) NC(=O)C(F)(F)C(F)(F)C(F)(F)F inactive
6) NC(O)(C(F)(F)F)C(F)(F)F inactive
7) OC(O)C(F)(F)C(F)(F)F inactive
8) NC(=O)C(F)(F)C(F)(F)C(F)(F)C(F)F inactive
9) CCN(CCO)S(=O)(=O)C(F)(F)C(F)(F)C(F)(F)C(F)(F)C(F)(F)C(F)(F)C(F)(F)C(F)(F)F inactive
10) CNS(=O)(=O)C(F)(F)C(F)(F)C(F)(F)C(F)(F)C(F)(F)C(F)(F)C(F)(F)C(F)(F)F inactive

* * *

- TEST DESCRIPTION: CCTE_Shafer_MEA_dev_bursting_electrodes_number: CCTE's Neural Network Formation Assay for Number of Bursting Electrodes, Shafer Lab (AID 2284043)
Results filed as inconclusive are left out. Calls of active or inactive are those of the source. How the source made its calls: active means hit-call score of the fitted dose curve at least 0.9, where 1 is the maximum; inconclusive means response in the unintended direction; inactive means score below 0.9.
Classes used: T for active, F for inactive

COMPOUND	GROUP LABEL
OCC(O)CC(F)(F)C(F)(F)C(F)(F)C(F)(F)F (configuration not stated)	F
CNS(=O)(=O)C(F)(F)C(F)(F)C(F)(F)C(F)(F)C(F)(F)C(F)(F)C(F)(F)C(F)(F)F	F
OCC(F)(F)C(F)(F)C(F)(F)C(F)(F)C(F)(F)C(F)(F)CO	F
CCN(CCO)S(=O)(=O)C(F)(F)C(F)(F)C(F)(F)C(F)(F)C(F)(F)C(F)(F)C(F)(F)C(F)(F)F	F
OCC(F)(F)C(F)(F)C(F)(F)C(F)(F)C(F)(F)C(F)(F)C(F)(F)C(F)(F)CO	F
C=CC(=O)OCCC(F)(F)C(F)(F)C(F)(F)C(F)(F)F	F
C=CC(=O)OCC(F)(F)C(F)(F)C(F)(F)COC(=O)C=C	T

* * *

- Read-out: Urokinase-type plasminogen activator receptor (uPAR), PLAUR (gene 5329)
- TEST DESCRIPTION: BSK_BE3C_uPAR: BioMAP Diversity Plus: BE3C Assay for Urokinase-type plasminogen activator receptor (uPAR) Biomarker Activity (AID 2283039);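 for Outcome: uPAR protein level measured by ELISA on the cells; cells exposed to compound for one day before measurement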
- PROTOCOL CONDITIONS: primary human bronchial epithelial cells; actives raise or lower the signal
The source made the active and inactive calls. The calls were made as follows: active = hit-call score of the fitted dose curve at least 0.9, where 1 is the maximum; inactive = score below 0.9.
Outcome codes: True (active), False (inactive)

COMPOUND	GROUP LABEL
Brc1nc2ccccc2s1	False
O=C1C=CC(=O)N1c1ccc(Cc2ccc(N3C(=O)C=CC3=O)cc2)cc1	True
O=C(O)C(F)(F)C(F)(F)C(F)(F)OC(F)(F)F	False
O=S(=O)(OCC(F)(F)F)C(F)(F)C(F)(F)C(F)(F)C(F)(F)F	False
CCN(CC)c1ccc(C=O)c(O)c1	False
CN(C(=O)C(F)(F)C(F)(F)C(F)(F)F)[Si](C)(C)C	False
OCCCCC(F)(F)C(F)(F)C(F)(F)C(F)(F)F	False
O=C(O)C(F)(F)C(F)(F)C(F)(F)C(=O)O	False
CC(C)(C)c1cc(CCC(=O)NCCCCCCNC(=O)CCc2cc(C(C)(C)C)c(O)c(C(C)(C)C)c2)cc(C(C)(C)C)c1O	False
COC(F)(C(F)F)C(F)(F)F (stereo not drawn)	False
O=C(Cl)C(F)(F)C(F)(F)C(F)(F)C(F)(F)C(F)(F)C(F)(F)F	False
O=C(O)C(F)(F)C(F)(F)C(F)(F)OC(F)(C(F)(F)F)C(F)(F)F	False
Cc1cc(O)c(C(C)(C)C)cc1C(C)(C)C	True
C=C(C)C(=O)OCC(F)(F)C(F)(F)C(F)(F)C(F)F	False
O=C(Cl)C(F)(F)C(F)(F)C(F)(F)C(F)(F)C(F)(F)C(F)(F)C(F)(F)F	False
C=CC(=O)OCC(F)(F)C(F)(F)C(F)(F)C(F)(F)C(F)(F)C(F)(F)C(F)(F)C(F)F	False
CCOC(=O)CC(=O)C(F)(F)C(F)(F)F	False
Cc1cnccn1	False

* * *

- Read-out: Matrix Metallopeptidase 1 (MMP1), MMP1 (gene 4312)
- TEST DESCRIPTION: BSK_hDFCGF_MMP1: BioMAP Diversity Plus: hDFCGF Assay for Matrix Metallopeptidase 1 (MMP1) Biomarker Activity (AID 2283064)
- PROTOCOL CONDITIONS: primary human foreskin fibroblasts; actives raise or lower the signal
The source made the active and inactive calls. The calls were made as follows: active = hit-call score of the fitted dose curve at least 0.9, where 1 is the maximum; inactive = score below 0.9.
Labels: active, inactive

COMPOUND	GROUP LABEL
CCN(CC)c1ccc2c(c1)Oc1cc(N(CC)CC)ccc1C21OC(=O)c2ccccc21	inactive
OC(O)C(F)(F)C(F)(F)F	inactive
CO[Si](C)(CCC(F)(F)C(F)(F)C(F)(F)C(F)(F)C(F)(F)C(F)(F)F)OC	inactive
FC(F)(F)C(F)(F)C(F)(F)CC1CO1 (configuration not stated)	inactive
CCN(CC)c1ccc(C=O)c(O)c1	inactive
NS(=O)(=O)C(F)(F)C(F)(F)C(F)(F)C(F)(F)C(F)(F)C(F)(F)F	inactive
O=C(O)C(F)(F)C(F)(F)C(F)(F)OC(F)(F)F	inactive
CC(C)CCCC(C)CCO (configuration not stated)	inactive
OCC(O)CC(F)(F)C(F)(F)C(F)(F)C(F)(F)C(F)(F)C(F)(F)C(F)(F)C(F)(F)F (configuration not stated)	inactive
OCC(O)CC(F)(F)C(F)(F)C(F)(F)C(F)(F)F (configuration not stated)	inactive
CCOC(C=C(C)CCC=C(C)C)OCC	active
C=CC(=O)OCC(F)(F)C(F)(F)C(F)(F)C(F)(F)C(F)(F)C(F)(F)C(F)(F)C(F)F	inactive

* * *

- TEST DESCRIPTION: TOX21_p53_BLA_p5_viability: Viability Assessment in the Tox21 HCT-116 p53 Agonism Beta-lactamase Assay, Phase 5 (AID 2283600)
Inconclusive results are not listed. Calls of active or inactive are those of the source. The calls were made as follows: active = hit-call score of the fitted dose curve at least 0.9, where 1 is the maximum; inconclusive = response in the unintended direction; inactive = score below 0.9.
Outcome codes: T for active, F for inactive

MOLECULE	GROUP LABEL
CCC(=O)OC(C)c1ccccc1 (centres undefined)	F
O=C1C=CC(=O)N1c1ccc(Cc2ccc(N3C(=O)C=CC3=O)cc2)cc1	T
CCC(Cc1c(I)cc(I)c(N)c1I)C(=O)O (centres undefined)	F
CCOC(=O)C1CC(=O)C(=C(O)C2CC2)C(=O)C1 (centres undefined)	F
CC(C)CCCC(C)CCO (centres undefined)	F
CCCCCC/C=C/CCCCCCCC(=O)O	F
CC(C)OC(=O)COc1ccc(Cl)cc1Cl	F
CC(=O)CCC(C)C	F
CO[Si](CCCOCC1CO1)(OC)OC (centres undefined)	F

* * *

- TEST DESCRIPTION: ATG_CRE_CIS: Attagene CIS-FACTORIAL HepG2 Assay for human cAMP Responsive Element (CRE) binding protein 3 (AID 2282926)
- PROTOCOL CONDITIONS: HepG2 CRE cis-reporter, Attagene multiplexed mRNA; actives raise or lower the signal
The source made the active and inactive calls. The calls were made as follows: active = hit-call score of the fitted dose curve at least 0.9, where 1 is the maximum; inactive = score below 0.9.
Outcome codes: 1 (yes) = active, 0 (no) = inactive

COMPOUND	GROUP LABEL
COCCC(=O)OC	0 (no)
NCC(F)(F)C(F)(F)C(F)(F)C(F)(F)C(F)(F)C(F)(F)C(F)(F)C(F)(F)F	0 (no)
COC(F)(C(F)F)C(F)(F)F (stereo unspecified)	0 (no)
O=S(=O)(Cl)C(F)(F)C(F)(F)C(F)(F)C(F)(F)C(F)(F)C(F)(F)C(F)(F)C(F)(F)F	0 (no)
O=c1cccc[nH]1	0 (no)
C=C(C)CCCC	0 (no)
O=C=Nc1cccc2c(N=C=O)cccc12	0 (no)
O=C(O)C(F)(F)C(F)(F)C(F)(F)C(F)(F)C(F)(F)C(F)(F)C(F)F	0 (no)
OCC(F)(F)C(F)(F)C(F)(F)C(F)(F)C(F)(F)C(F)(F)CO	0 (no)
CC(C)(C)C(=O)C1C(=O)c2ccccc2C1=O	1 (yes)
Oc1ccc2c(c1)CCC2	0 (no)
CCCCCCCC/C=C\CCCCCCCC(=O)N(C)CC(=O)O	0 (no)
CCc1cccc(C)c1N(C(=O)C(=O)O)C(C)COC (stereo unspecified)	0 (no)
FC(F)(F)C(F)(F)C(F)(F)CC1CO1 (stereo unspecified)	0 (no)
CC(C)(C)c1cc(CCC(=O)NCCCCCCNC(=O)CCc2cc(C(C)(C)C)c(O)c(C(C)(C)C)c2)cc(C(C)(C)C)c1O	0 (no)
c1ccc(C[P+](c2ccccc2)(c2ccccc2)c2ccccc2)cc1	0 (no)
CC(=O)CCC(C)C	0 (no)
CCCC(=O)OCC(COC(=O)CCC)OC(=O)CCC	0 (no)
C=CC(=O)OCCC(F)(F)C(F)(F)C(F)(F)C(F)(F)F	0 (no)
CC(C)CC=C(C=O)c1ccccc1	0 (no)
Oc1ccc(C2(c3ccc(O)c(C4CCCCC4)c3)CCCCC2)cc1C1CCCCC1	0 (no)
CCOCN(C(=O)CS(=O)(=O)O)c1c(C)cccc1CC	0 (no)
OCC(F)(F)C(F)(F)C(F)(F)C(F)(F)C(F)(F)C(F)(F)C(F)(F)C(F)(F)CO	0 (no)
O=C(O)CCC(F)(F)C(F)(F)C(F)(F)F	0 (no)
OCC(O)CC(F)(F)C(F)(F)C(F)(F)C(F)(F)C(F)(F)C(F)(F)C(F)(F)C(F)(F)F (stereo unspecified)	0 (no)
Cc1cnccn1	0 (no)
CC1=CCC2C(=O)OC(=O)C2C1 (stereo unspecified)	0 (no)
CCc1cc(Cc2cc(CC)c(N)c(CC)c2)cc(CC)c1N	1 (yes)
CN(C)C(C)(C)CO	0 (no)
CO[Si](CCCOCC1CO1)(OC)OC (stereo unspecified)	0 (no)
CCCCC(CC)COC(=O)c1ccc(N(C)C)cc1 (stereo unspecified)	0 (no)
